assayed-system: NLRP3 inflammasome (Homo sapiens, UniProt Q96P20)
Construct: endogenous in cells
Sequence (Q96P20 whole entry): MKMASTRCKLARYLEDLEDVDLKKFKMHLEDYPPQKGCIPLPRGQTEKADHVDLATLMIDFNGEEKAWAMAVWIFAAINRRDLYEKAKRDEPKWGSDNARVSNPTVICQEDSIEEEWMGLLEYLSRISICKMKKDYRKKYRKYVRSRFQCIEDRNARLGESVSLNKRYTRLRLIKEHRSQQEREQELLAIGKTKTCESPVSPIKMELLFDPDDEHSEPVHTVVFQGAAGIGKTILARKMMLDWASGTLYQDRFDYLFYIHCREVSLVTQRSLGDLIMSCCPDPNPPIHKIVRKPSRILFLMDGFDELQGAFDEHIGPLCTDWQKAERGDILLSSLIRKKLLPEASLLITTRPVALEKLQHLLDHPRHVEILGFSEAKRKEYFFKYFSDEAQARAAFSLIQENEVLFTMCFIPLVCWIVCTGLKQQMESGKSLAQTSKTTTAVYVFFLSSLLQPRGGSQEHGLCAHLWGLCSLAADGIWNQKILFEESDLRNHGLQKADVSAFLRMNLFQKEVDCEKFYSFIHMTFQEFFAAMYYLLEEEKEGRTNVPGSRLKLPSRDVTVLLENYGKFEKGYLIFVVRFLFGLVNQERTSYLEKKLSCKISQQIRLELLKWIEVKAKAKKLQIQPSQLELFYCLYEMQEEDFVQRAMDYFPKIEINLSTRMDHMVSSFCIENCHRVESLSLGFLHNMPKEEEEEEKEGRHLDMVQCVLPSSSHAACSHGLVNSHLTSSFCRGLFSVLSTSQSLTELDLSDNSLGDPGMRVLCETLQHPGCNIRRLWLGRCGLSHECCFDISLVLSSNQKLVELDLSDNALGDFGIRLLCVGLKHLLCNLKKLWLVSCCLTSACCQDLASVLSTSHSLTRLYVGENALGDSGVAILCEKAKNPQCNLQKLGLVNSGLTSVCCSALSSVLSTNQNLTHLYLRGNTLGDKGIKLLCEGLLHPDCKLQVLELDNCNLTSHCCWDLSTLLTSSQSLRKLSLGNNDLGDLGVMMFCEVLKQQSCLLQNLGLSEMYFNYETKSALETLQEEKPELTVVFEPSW
assay-remarks: IL-1β secretion assay (NLRP3 IC50) in LPS-primed, nigericin-activated THP-1 cells, HTRF
reported-conditions: monocytic THP-1 cells; LPS 10 ng/mL 3 h priming, then compound + nigericin 10 μM 2 h; relative IC50, 10 concentrations, geometric mean
assay-endpoint: IC50 (nM)

Some compounds with recorded IC50:
[[record]]
compound = "CN1CC[C@H]2OCCN(c3cc(C(F)F)c(-c4ccc(C(F)(F)F)cc4O)nn3)[C@H]2C1"
value_measured = 3

[[record]]
compound = "Cc1cc(C)c(-c2ccc(N3CCO[C@H](CC(=O)N(C)C)C3)nn2)c(O)c1 (single isomer, unassigned)"
value_measured = 1790

[[record]]
compound = "Cc1cc(C)c(-c2ccc(N3CC[C@H]4CCN(C)C[C@H]43)nn2)c(O)c1 (single isomer, unassigned)"
value_measured = 1010


(A) Cc1cc(C)c(-c2ccc(N3CCC[C@H](O)C3)nn2)c(O)c1
(B) CCc1cc(N2CCO[C@H](CO)C2)nnc1-c1ccc(Cl)cc1O
(C) Cc1cc(C)c(O)c(-c2ccc(N3CCO[C@H](CO)C3)nn2)c1
(D) Cc1ccc(-c2nnc(N3CC[C@@H]4CCN(C)C[C@@H]43)cc2C)c(O)c1 (racemic) [Example 341]
Hello, I need these entries ordered by IC50, highest reading first. Thanks! To answer, write out the labels according to the requested order.
C, A, B, D
(C: 5980 nM, A: 306 nM, B: 56 nM, D: 1 nM)

(1) CCN1CC[C@H]2OCCN(c3ccc(-c4c(C)cc(C(F)(F)F)cc4O)nn3)[C@@H]2C1
(2) CC(=O)NC1CC2(CCN(c3ccc(-c4c(O)cc(Cl)cc4Cl)nn3)CC2)C1
(3) Cc1cc(C)c(-c2ccc(N3CCC[C@H]4CCN(C)C[C@@H]43)nn2)c(O)c1
(4) CC(=O)N1CC[C@H]2CCN(c3ccc(-c4c(C)cc(C(F)(F)F)cc4O)nn3)[C@H]2C1 [Example 369]
Please list these compounds in decreasing order of IC50. Write the labels out in the order the request specifies.
2, 4, 1, 3
(2: 1040 nM, 4: 476 nM, 1: 223 nM, 3: 55 nM)
